Molecular target: Lanosterol 14-alpha demethylase (Candida albicans (strain SC5314 / ATCC MYA-2876) (Yeast))
Assay: Anticandida activity- (MIC90 compound) / (MIC90 bifonazole)
Assay type: functional
ASSAY_ENDPOINT: Ratio

I = Clc1ccc([C@@H](c2ccc(-n3cccc3)cc2)n2ccnc2)cc1
II = COc1ccc(C[C@@H](c2ccc(OC)cc2)n2cnnc2)cc1
[in] Hi team, can someone confirm which has the larger Ratio: I or II ? Thanks. Return value: the label identifying the chosen record.
[out] II
(II: 64, I: 0.5)

A = Cn1cc(-c2ccc(F)cc2)c([C@@H](c2ccccc2)n2ccnc2)c1
B = COc1ccc([C@@H]([C@@H](Cc2ccc(Cl)cc2Cl)c2ccc(Cl)cc2)n2ccnc2)cc1
[in] Smaller Ratio value, A vs B ? Return value: the label identifying the chosen record.
[out] A
(A: 4, B: 10.5)

a = COc1ccc([C@@H](Cc2ccc(Cl)cc2Cl)n2ccnc2)cc1
b = Cc1ccc(-c2cn(Cc3ccc(Cl)cc3Cl)cc2[C@@H](c2ccccc2)n2ccnc2)cc1
c = Fc1ccc(-n2ccc([C@H](c3ccc(Cl)cc3)n3ccnc3)c2)cc1
d = Cc1ccc([C@@H](c2ccc(NC(=O)c3ccc(Cl)cc3Cl)cc2)n2ccnc2)cc1
e = COc1ccc([C@H](Cc2ccc(F)cc2)n2ccnc2)cc1
[in] Form: Sort by [Ratio] Order [ ascending ] Your task in answering is to list the labels in the requested order.
[out] d, c, a, e, b

a = Cn1cc(-c2ccccc2)c([C@H](c2ccccc2)n2ccnc2)c1
b = COc1ccc([C@H](Cc2ccc([N+](=O)[O-])cc2)n2ccnc2)cc1
c = Clc1ccc(-c2c[nH]cc2[C@@H](c2ccccc2)n2ccnc2)cc1
d = Clc1ccc(Cn2cc(-c3ccccc3)c([C@@H](c3ccccc3)n3ccnc3)c2)c(Cl)c1
e = COc1ccc([C@H](Cc2ccccc2Cl)n2ccnc2)cc1
[in] Form: Sort by [Ratio] Order [ ascending ] Your task in answering is to list the labels in the requested order.
[out] c, a, d, b, e
(c: 0.46, a: 4, d: 22, b: 32, e: 63)

a = COc1ccc([C@H](Cc2ccccc2-n2cccc2)n2ccnc2)cc1
b = COc1ccc([C@H](Cc2cccc(-n3cccc3)c2)n2ccnc2)cc1
[in] Smaller Ratio value, a vs b ? Return value: the label identifying the chosen record.
[out] a

a = COc1ccc([C@H]([C@@H](Cc2ccc(Cl)cc2Cl)c2ccc(OC)cc2)n2ccnc2)cc1
b = Fc1ccc(-c2c[nH]cc2[C@@H](c2ccccc2)n2ccnc2)cc1
c = COc1ccc([C@H](Cc2ccc(Cl)cc2)n2cnnc2)cc1
d = Fc1ccc([C@@H](c2ccn(-c3ccc(Cl)cc3)c2)n2ccnc2)cc1
e = COc1ccc([C@H](Cc2ccccc2[N+](=O)[O-])n2ccnc2)cc1
[in] Could you please sort these 5 entries by Ratio from high to low? Your task in answering is to list the labels in the requested order.
[out] e, c, a, d, b

I = Cn1cc(-c2ccc(Cl)cc2)c([C@@H](c2ccccc2)n2ccnc2)c1
II = COc1ccc(C[C@@H](c2ccc(OC)cc2)n2ccnc2)cc1
[in] Smaller Ratio value, I vs II ? Return value: the label identifying the chosen record.
[out] I

1 = O=[N+]([O-])c1ccc([C@@H](c2ccc(Cl)cc2)n2ccnc2)cc1
2 = COc1ccc([C@H](Cc2cccc(Cl)c2)n2ccnc2)cc1
[in] Hi team, can someone confirm which has the larger Ratio: 1 or 2 ? Thanks. Return value: the label identifying the chosen record.
[out] 2
(2: 32, 1: 1)

* * *

Biological target: Lanosterol 14-alpha demethylase (Candida albicans (strain SC5314 / ATCC MYA-2876) (Yeast))
Assay: Anticandida activity- (MIC90 compound) / (MIC90 bifonazole)
Assay type: functional
ASSAY_ENDPOINT: Ratio

Worked set:
COMPOUND: Clc1ccc(-c2cn(Cc3ccc(Cl)cc3Cl)cc2[C@@H](c2ccccc2)n2ccnc2)cc1
SYSTEM_TESTED: Lanosterol 14-alpha demethylase (Candida albicans (strain SC5314 / ATCC MYA-2876) (Yeast))
Ratio: 40
--
COMPOUND: Cn1cc(-c2ccc(Cl)cc2)c([C@H](c2ccc(Cl)cc2Cl)n2ccnc2)c1
SYSTEM_TESTED: Lanosterol 14-alpha demethylase (Candida albicans (strain SC5314 / ATCC MYA-2876) (Yeast))
Ratio: 3
--
COMPOUND: Cc1ccc([C@H](c2ccc([N+](=O)[O-])cc2)n2ccnc2)cc1
SYSTEM_TESTED: Lanosterol 14-alpha demethylase (Candida albicans (strain SC5314 / ATCC MYA-2876) (Yeast))
Ratio: 0.5
--
COMPOUND: CCC(c1ccc(Cl)cc1)[C@@H](c1ccc(OC)cc1)n1cncn1 (some centres undefined)
SYSTEM_TESTED: Lanosterol 14-alpha demethylase (Candida albicans (strain SC5314 / ATCC MYA-2876) (Yeast))
Ratio: 29
--
COMPOUND: Cc1ccc([C@H](c2ccn(-c3ccc(Cl)cc3)c2)n2ccnc2)cc1
SYSTEM_TESTED: Lanosterol 14-alpha demethylase (Candida albicans (strain SC5314 / ATCC MYA-2876) (Yeast))
Ratio: 0.89
--
COMPOUND: Fc1ccc(-n2ccc([C@@H](c3ccccc3)n3ccnc3)c2)cc1
SYSTEM_TESTED: Lanosterol 14-alpha demethylase (Candida albicans (strain SC5314 / ATCC MYA-2876) (Yeast))
Ratio: 4
--
COMPOUND: CC(C)(C)c1ccc(-c2c[nH]cc2[C@@H](c2ccc(Cl)cc2Cl)n2ccnc2)cc1
SYSTEM_TESTED: Lanosterol 14-alpha demethylase (Candida albicans (strain SC5314 / ATCC MYA-2876) (Yeast))
Ratio: 47
--
COMPOUND: Cc1ccc(-c2cn(C)cc2[C@@H](c2ccccc2)n2ccnc2)cc1
SYSTEM_TESTED: Lanosterol 14-alpha demethylase (Candida albicans (strain SC5314 / ATCC MYA-2876) (Yeast))
Ratio: 3.8

a = Clc1ccc([C@@H](c2ccn(-c3ccc(Cl)cc3)c2)n2ccnc2)cc1
b = CC[C@@H](c1ccc([N+](=O)[O-])cc1)[C@H](c1ccc(OC)cc1)n1ccnc1
c = Fc1ccc([C@H](c2ccn(-c3ccccc3)c2)n2ccnc2)cc1
d = Clc1ccc(-n2ccc([C@@H](c3ccccc3)n3ccnc3)c2)cc1
e = COc1ccc([C@@H]([C@@H](Cc2ccc(Cl)cc2Cl)c2ccc(Cl)cc2)n2cncn2)cc1
[in] Form: Sort by [Ratio] Order [ ascending ] Your task in answering is to list the labels in the requested order.
[out] d, c, a, b, e
(d: 0.5, c: 2, a: 3, b: 7.3, e: 62)

* * *

Collected MIC50 values appear next to each entry.
System: Candida
Assay: Tested In vitro for antifungal activity against Candida species. at pH 7.2
Type: functional
Value expressed in µg/mL; do not type the unit.

MOLECULE: Cn1cc(-c2ccc(Cl)cc2)c([C@H](c2ccc(Cl)cc2Cl)n2ccnc2)c1
ASSAY_ENDPOINT: MIC50
VAL: 16

[in] Consider the compound Oc1ccc(-c2c[nH]cc2[C@@H](c2ccc(Cl)cc2Cl)n2ccnc2)cc1 and give its measured MIC50.
[out] 256

[in] What about CSc1ccc(-c2c[nH]cc2[C@H](c2ccc(Cl)cc2Cl)n2ccnc2)cc1 ?
[out] 64

* * *

System: Candida
Assay: Tested In vitro for antifungal activity against Candida species. at pH 7.2
Type: functional
ASSAY_ENDPOINT: MIC50 (µg/mL)
Value expressed in µg/mL; do not type the unit.

[in] Consider the compound O=[N+]([O-])c1ccc(-c2c[nH]cc2[C@@H](c2ccc(Cl)cc2Cl)n2ccnc2)cc1 and give its measured MIC50.
[out] 32

[in] What about Clc1ccc([C@H](c2c[nH]cc2-c2ccc(-c3ccccc3)cc2)n2ccnc2)c(Cl)c1 ?
[out] 8

[in] What about Clc1ccc([C@H](c2c[nH]cc2-c2ccc(-n3cccc3)cc2)n2ccnc2)c(Cl)c1 ?
[out] 4

[in] What about CCn1cc(-c2ccc(Cl)cc2)c([C@H](c2ccc(Cl)cc2Cl)n2ccnc2)c1 ?
[out] 16

* * *

Target: Lanosterol 14-alpha demethylase (Candida albicans (strain SC5314 / ATCC MYA-2876) (Yeast), UniProt P10613)
Sequence (P10613 whole entry): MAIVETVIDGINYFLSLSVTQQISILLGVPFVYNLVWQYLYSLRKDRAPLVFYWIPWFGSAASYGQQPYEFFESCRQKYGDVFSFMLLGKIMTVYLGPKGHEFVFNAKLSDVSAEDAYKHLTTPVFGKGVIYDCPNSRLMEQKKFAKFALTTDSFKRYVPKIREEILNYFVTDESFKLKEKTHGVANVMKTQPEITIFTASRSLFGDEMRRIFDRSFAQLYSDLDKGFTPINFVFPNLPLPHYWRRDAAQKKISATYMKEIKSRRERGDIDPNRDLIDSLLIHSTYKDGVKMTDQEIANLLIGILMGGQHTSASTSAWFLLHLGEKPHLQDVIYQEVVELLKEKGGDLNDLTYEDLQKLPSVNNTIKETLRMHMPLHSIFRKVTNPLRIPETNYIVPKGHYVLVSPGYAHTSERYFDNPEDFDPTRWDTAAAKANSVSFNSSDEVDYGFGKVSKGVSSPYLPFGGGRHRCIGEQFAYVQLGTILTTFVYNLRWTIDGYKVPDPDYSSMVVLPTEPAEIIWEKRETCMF
Experiment: Anticandida activity- (MIC90 compound) / (MIC90 bifonazole)
Assay type: functional
ASSAY_ENDPOINT: Ratio

Worked set:
MOLECULE: Nc1ccc([C@@H](c2ccccc2)n2ccnc2)cc1
Ratio: 2.5
//
MOLECULE: Clc1ccc([C@H](c2c[nH]cc2-c2ccc(-n3cccc3)cc2)n2ccnc2)c(Cl)c1
Ratio: 0.72
//
MOLECULE: COc1ccc([C@H](Cc2ccc(Cl)cc2)n2ccnc2)cc1
Ratio: 4

a = Cc1ccc([C@H](c2ccn(-c3ccccc3)c2)n2ccnc2)cc1
b = COc1ccc([C@H](Cc2cccc(F)c2)n2ccnc2)cc1
c = Cc1ccc([C@@H](c2ccc(-n3cccc3)cc2)n2ccnc2)cc1
d = O=[N+]([O-])c1ccc([C@@H](c2ccccc2)n2ccnc2)cc1
[in] Could you please sort these 4 entries by Ratio from high to low? Your task in answering is to list the labels in the requested order.
[out] b, d, a, c

Value source: ChEMBL document CHEMBL1135477
